Ref: ChEMBL document CHEMBL1201862

- study_system: Large T antigen (Simian virus 40, UniProt P03070);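 further: Confirmatory-stage PubChem screen for compounds that inhibit SV40 T antigen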
- Sequence (P03070 whole entry): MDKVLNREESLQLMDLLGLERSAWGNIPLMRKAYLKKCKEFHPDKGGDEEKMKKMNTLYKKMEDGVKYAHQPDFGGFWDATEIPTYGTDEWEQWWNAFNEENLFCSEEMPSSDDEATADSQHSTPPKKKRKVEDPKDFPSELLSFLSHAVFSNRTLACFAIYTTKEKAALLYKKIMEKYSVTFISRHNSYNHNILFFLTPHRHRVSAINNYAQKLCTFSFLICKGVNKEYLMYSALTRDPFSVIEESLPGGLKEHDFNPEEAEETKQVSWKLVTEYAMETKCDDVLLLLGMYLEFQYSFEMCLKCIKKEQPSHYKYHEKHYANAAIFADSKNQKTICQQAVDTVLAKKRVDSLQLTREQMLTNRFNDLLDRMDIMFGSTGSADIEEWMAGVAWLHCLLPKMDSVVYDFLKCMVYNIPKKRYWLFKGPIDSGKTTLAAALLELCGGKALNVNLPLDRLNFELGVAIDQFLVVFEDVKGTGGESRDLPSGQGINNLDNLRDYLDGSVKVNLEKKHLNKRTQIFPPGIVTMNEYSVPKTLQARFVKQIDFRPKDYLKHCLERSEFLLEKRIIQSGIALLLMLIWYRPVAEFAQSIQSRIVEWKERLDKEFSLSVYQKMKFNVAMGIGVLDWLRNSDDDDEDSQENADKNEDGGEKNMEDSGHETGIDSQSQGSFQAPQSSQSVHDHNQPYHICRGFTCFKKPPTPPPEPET
- Type: functional, Betapolyomavirus macacae
Calls of active or inactive are those of the source.
metric: IC50

COc1cc(/C=N/N2C(=O)CSC2=S)cc(Br)c1O 12.8 µM (active)

Fill in the blank: the reported IC50 of COc1cc(-c2nc3cnccn3c2Nc2ccccc2)ccc1O is ____. 5.05 µM (active)

Queued: O=[N+]([O-])c1ccc(Sc2nc3ccccc3o2)c([N+](=O)[O-])c1 84.9 µM (active)

Queued: O=C1NC(=O)N(Cc2ccc(F)cc2)C(=O)/C1=C\c1ccoc1 56.4 µM (active)

Queued: Oc1ccc(-c2csc(Nc3cccc4ccccc34)n2)cc1O 66.2 µM (active)
